biological target: human EAAT2 (Homo sapiens, UniProt P43004); construct: expressed in transfected cells; host or cells: MDCK (MDCK/EAAT2); experiment: L-[3H]glutamate uptake into MDCK/EAAT2 cells (EAAT2-mediated glutamate transport); format: cell-based; settings: L-[3H]glutamate uptake, MDCK/EAAT2 cells, 20 min, room temperature, test compounds 0.1-1000 μM; read-out: EAAT2 Inhibition (IC50 (μM))
Sequence (P43004 whole entry, the tested form may be a part): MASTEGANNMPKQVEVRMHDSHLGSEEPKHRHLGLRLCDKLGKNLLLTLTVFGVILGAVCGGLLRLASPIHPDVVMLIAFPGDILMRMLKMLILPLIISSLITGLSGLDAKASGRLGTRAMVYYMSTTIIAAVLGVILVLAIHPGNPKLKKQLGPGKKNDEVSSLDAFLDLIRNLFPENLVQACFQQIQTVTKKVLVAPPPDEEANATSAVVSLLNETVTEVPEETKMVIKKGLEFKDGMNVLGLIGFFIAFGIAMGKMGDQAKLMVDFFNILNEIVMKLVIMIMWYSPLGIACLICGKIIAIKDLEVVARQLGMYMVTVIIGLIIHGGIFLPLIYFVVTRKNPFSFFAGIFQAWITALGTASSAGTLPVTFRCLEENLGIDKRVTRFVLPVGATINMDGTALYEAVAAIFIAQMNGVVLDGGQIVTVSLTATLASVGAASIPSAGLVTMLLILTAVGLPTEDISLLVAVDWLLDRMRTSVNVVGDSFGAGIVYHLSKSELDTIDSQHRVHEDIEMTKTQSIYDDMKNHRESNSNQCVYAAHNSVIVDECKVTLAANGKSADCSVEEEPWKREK
Please assign FALSE whenever IC50 is at or above 10 µM, and TRUE whenever it is below.

COMPOUND: N[C@H](C(=O)O)[C@H]1C[C@H]1C(=O)O
CLASS_LABEL: TRUE
--
COMPOUND: N[C@@]1(C(=O)O)[C@H]2C[C@H]3[C@@H]1[C@@]3(C(=O)O)C2 (racemic)
CLASS_LABEL: FALSE
--
COMPOUND: NC1(C(=O)O)C2CC3C1C3(C(=O)O)C2 (single isomer, unassigned; (-))
CLASS_LABEL: TRUE
--
COMPOUND: CC(C)[C@H]1CN[C@H](C(=O)O)[C@H]1CC(=O)O [Dihydrokainic acid]
CLASS_LABEL: FALSE
--
COMPOUND: N[C@]1(C(=O)O)[C@H]2C[C@H]3[C@@H]1[C@@]3(C(=O)O)C2 (racemic)
CLASS_LABEL: TRUE
